Test system: Escherichia coli
test.name: Antibacterial activity against Escherichia coli TG1 pET28a plasmid encoded for APH(3')-3a after 12 to 18 hrs
Format: functional

smiles	target.under.test	MIC [µg/mL]
NC[C@@H]1O[C@H](O[C@H]2[C@@H](O)[C@H](O[C@@H]3[C@@H](O)[C@H](N)C[C@H](N)[C@H]3O[C@H]3O[C@H](CN)[C@@H](O)[C@H](O)[C@H]3N)O[C@@H]2CNC(=O)CCC(=O)NC[C@H]2O[C@@H](O[C@@H]3[C@@H](O)[C@H](N)C[C@H](N)[C@H]3O[C@H]3O[C@H](CN)[C@@H](O)[C@H](O)[C@H]3N)[C@H](O)[C@@H]2O[C@H]2O[C@@H](CN)[C@@H](O)[C@H](O)[C@H]2N)[C@H](N)[C@@H](O)[C@@H]1O	Escherichia coli	64

* * *

Tested on: Enterococcus
test.name: Ratio of kcat to Km of Enterococcus APH(3')-3a
observation.type: kcat/Km (×10⁴ /M/s)

compound	reported
NC[C@@H]1O[C@H](O[C@H]2[C@@H](O)[C@H](O[C@@H]3[C@@H](O)[C@H](N)C[C@H](N)[C@H]3O[C@H]3O[C@H](CN)[C@@H](O)[C@H](O)[C@H]3N)O[C@@H]2CNC(=O)[C@@H](N)CO)[C@H](N)[C@@H](O)[C@@H]1O	1.2
NC[C@@H]1O[C@H](O[C@H]2[C@@H](O)[C@H](O[C@@H]3[C@@H](O)[C@H](N)C[C@H](N)[C@H]3O[C@H]3O[C@H](CN)[C@@H](O)[C@H](O)[C@H]3N)O[C@@H]2Cn2cc(C3CCCCN3)nn2)[C@H](N)[C@@H](O)[C@@H]1O (stereo partly drawn)	0.18
NC[C@@H]1O[C@H](O[C@H]2[C@@H](O)[C@H](O[C@@H]3[C@@H](O)[C@H](N)C[C@H](N)[C@H]3O[C@H]3O[C@H](CN)[C@@H](O)[C@H](O)[C@H]3N)O[C@@H]2CNC(=O)CCC(=O)O)[C@H](N)[C@@H](O)[C@@H]1O	0.81
NC[C@@H]1O[C@H](O[C@H]2[C@@H](O)[C@H](O[C@@H]3[C@@H](O)[C@H](N)C[C@H](N)[C@H]3O[C@H]3O[C@H](CN)[C@@H](O)[C@H](O)[C@H]3N)O[C@@H]2CO)[C@H](N)[C@@H](O)[C@@H]1O	26.8
CN(C)Cc1cn(C[C@H]2O[C@@H](O[C@@H]3[C@@H](O)[C@H](N)C[C@H](N)[C@H]3O[C@H]3O[C@H](CN)[C@@H](O)[C@H](O)[C@H]3N)[C@H](O)[C@@H]2O[C@H]2O[C@@H](CN)[C@@H](O)[C@H](O)[C@H]2N)nn1	0.28
NC[C@@H]1O[C@H](O[C@H]2[C@@H](O)[C@H](O[C@@H]3[C@@H](O)[C@H](N)C[C@H](N)[C@H]3O[C@H]3O[C@H](CN)[C@@H](O)[C@H](O)[C@H]3N)O[C@@H]2Cn2cc(CNC(=O)C3CCNCC3)nn2)[C@H](N)[C@@H](O)[C@@H]1O	0.12
NC[C@@H]1O[C@H](O[C@H]2[C@@H](O)[C@H](O[C@@H]3[C@@H](O)[C@H](N)C[C@H](N)[C@H]3O[C@H]3O[C@H](CN)[C@@H](O)[C@H](O)[C@H]3N)O[C@@H]2CNC(=O)[C@H](N)CO)[C@H](N)[C@@H](O)[C@@H]1O	0.82
NC[C@@H]1O[C@H](O[C@H]2[C@@H](O)[C@H](O[C@@H]3[C@@H](O)[C@H](N)C[C@H](N)[C@H]3O[C@H]3O[C@H](CN)[C@@H](O)[C@H](O)[C@H]3N)O[C@@H]2CNC(=O)[C@@H]2CCCN2)[C@H](N)[C@@H](O)[C@@H]1O	0.4
